Target: eEF-2K C146S (Homo sapiens, UniProt O00418, C146S)
Assay: kinase dose response and recovery assays with the C146S mutant
Measured Metric: IC50 (µM)

* N#CC1=C(N)SC(N)=C(C#N)C1c1ccccc1F | 655

----------
Biological target: eEF-2K (Homo sapiens)
Measured Metric: IC50 (µM)

* N#CC1=C(N)SC(N)=C(C#N)C1c1ccccc1F | 110
